Sourced from patent US8691822B2

Assay: Pharmacokinetics assay in rats (plasma concentration by LC/MS/MS)
Assay type: in vivo
Conditions: both sexes, rat, plasma, po; SD rats, 25 mg/kg, intragastric administration; read-out: Clearance CL/F (converted)
measuredMetric: CL/F (mL/min/kg)
Give bare numbers, in mL/min/kg.

Prompt: Dear colleague, I am looking for the recorded CL/F of the following compound: CC[C@@H]1C(=O)N(C)c2cnc(Nc3ccc(C(=O)N[C@H]4CC[C@H](N5CCN(CC6CC6)CC5)CC4)c4c3OCC4)nc2N1C(C)C [Example 37]
Response: 9.5

====

Experiment: Pharmacokinetics assay in rats (plasma concentration by LC/MS/MS)
Format: in vivo
Settings: both sexes, rat, plasma; SD rats, 25 mg/kg, intravenous injection; read-out: Half-Life t½ (converted)
measuredMetric: half-life (h)
Answers are plain numbers, in h.

Prompt: Dear colleague, I am looking for the recorded half-life of the following compound: CC[C@@H]1C(=O)N(C)c2cnc(Nc3ccc(C(=O)N[C@H]4CC[C@H](N5CCN(CC6CC6)CC5)CC4)c4c3OCC4)nc2N1C(C)C [Example 37]
Response: 17.3
